Measured values drawn from paper PMC2649378 for this set.

Target: 5-HT3A receptors (Mus musculus, UniProt P23979)
Construct: expressed in transfected cells; host or cells: Xenopus laevis oocytes injected with cRNA (pGEMHE)
Experiment: Agonist-induced currents in Xenopus oocytes expressing 5-HT3A receptors (OpusXpress electrophysiology)
Format: cell-based
Settings: EC50, 5-HT3A receptors in Xenopus oocytes; holding potential -60 mV
Protocol: Harvested stage V–VI Xenopus oocytes were washed in six changes of ND96 (96 mM NaCl, 2 mM KCl, 1 mM MgCl2, 1.8 mM CaCl2, 5 mM HEPES, pH 7.5), de-folliculated in 1.5 mg ml^− 1 collagenase Type 1A for approximately 2 h. […] Agonist-induced currents were recorded at 22–25 °C from individual oocytes using the OpusXpress system (Molecular Devices Axon Instruments, Union City, CA). […]
Value Kind: EC50 (µM)
The figure you give is taken to be in µM; do not add the unit.

-- ask Given the molecule NCCc1c[nH]c2ccc(F)cc12 , write its reported EC50.
-- reply 16

-- ask Read off the recorded EC50 for Cc1ccc2[nH]cc(CCN)c2c1
-- reply 60

###

biological target: 5-HT3A receptors (Mus musculus, UniProt P23979); construct: expressed in transfected cells; host or cells: Xenopus laevis oocytes injected with cRNA (pGEMHE); test: [3H]granisetron binding to membranes of transfected HEK 293 cells, 5-HT3A receptors; conditions: 5-HT3A receptors; fold greater than 5-HT
Value Kind: Ki relative to the Ki for 5-HT

Example results:
# Compound Structure, Result
records = [
    ("NCCc1c[nH]c2ccc(Cl)cc12", "~10 fold"),
    ("COc1ccc2[nH]cc(CCN)c2c1", "~300 fold"),
    ("Cc1ccc2[nH]cc(CCN)c2c1", "~100 fold"),
    ("NCCc1c[nH]c2ccccc12", "~50 fold"),
]

Attention now shifts to the item below.
-- ask Dear colleague, please send me the reported Ki relative to the Ki for 5-HT for NCCc1c[nH]c2ccc(F)cc12 when you can.
-- reply ~10 fold

###

Molecular target: 5-HT3A receptors (Mus musculus)
Construct: expressed in transfected cells; host or cells: Xenopus laevis oocytes injected with cRNA (pGEMHE)
Sequence (P23979 24-489): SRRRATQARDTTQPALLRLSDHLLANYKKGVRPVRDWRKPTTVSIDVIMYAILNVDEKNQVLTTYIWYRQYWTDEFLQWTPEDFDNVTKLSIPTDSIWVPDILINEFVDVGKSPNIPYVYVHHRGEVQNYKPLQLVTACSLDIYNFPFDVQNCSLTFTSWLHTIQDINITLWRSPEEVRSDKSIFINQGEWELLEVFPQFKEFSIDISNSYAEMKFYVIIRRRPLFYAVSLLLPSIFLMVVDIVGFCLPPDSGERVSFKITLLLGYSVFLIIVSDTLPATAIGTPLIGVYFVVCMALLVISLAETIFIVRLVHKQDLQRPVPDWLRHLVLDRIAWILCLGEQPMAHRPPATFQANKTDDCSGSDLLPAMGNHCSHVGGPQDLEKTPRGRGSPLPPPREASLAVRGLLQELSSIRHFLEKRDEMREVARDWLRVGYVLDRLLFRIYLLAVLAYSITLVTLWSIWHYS
Assay: Agonist-induced currents in Xenopus oocytes expressing 5-HT3A receptors (OpusXpress electrophysiology)
Type: cell-based
Settings: 5-HT3A receptors in Xenopus oocytes; maximal concentration
Value Kind: Relative efficacy Rmax = Imax drug / Imax 5-HT
Output: the number by itself.

Sample records with Relative efficacy Rmax = Imax drug / Imax 5-HT:
# Molecule, Quantitative Result
data = [
    ("NCCc1c[nH]c2ccc(Cl)cc12 [5-ClT, 5-chlorotryptamine]", 0.0037),
    ("NCCc1c[nH]c2ccccc12 [tryptamine]", 0.15),
]

-- ask Using the record for Cc1ccc2[nH]cc(CCN)c2c1 [5-MeT, 5-methyltryptamine] , state its measured Relative efficacy Rmax = Imax drug / Imax 5-HT.
-- reply 0.0023

-- ask Give Relative efficacy Rmax = Imax drug / Imax 5-HT for the following molecule: N=C(N)NC(=N)Nc1cccc(Cl)c1 [mCPBG, m-chlorophenylbiguanide]
-- reply 0.74

###

target: 5-HT3AB receptors (Mus musculus, UniProt P23979+Q9JHJ5); construct: expressed in transfected cells; host or cells: Xenopus laevis oocytes injected with cRNA (pGEMHE); experiment: [3H]granisetron binding to membranes of transfected HEK 293 cells, 5-HT3AB receptors
Value Kind: pKi
pKi here is simply -log10 of the concentration when that concentration is written in mol/L.

Check out these entries, answers already filled in.
# Compound Structure, pKi
data = [
    ("COc1ccc2[nH]cc(CCN)c2c1", 4.66),
    ("NCCc1c[nH]c2ccc(Cl)cc12", 5.51),
    ("Cc1ccc2[nH]cc(CCN)c2c1", 5.11),
]

Shift focus to the following entry.
-- ask Supply measured pKi of NCCc1c[nH]c2ccc(F)cc12 in your reply.
-- reply 5.74

###

Target: N128A mutant 5-HT3A receptors (Mus musculus, UniProt P23979, N128A)
Construct: Kunkel mutagenesis
Sequence (P23979 24-489 N128A): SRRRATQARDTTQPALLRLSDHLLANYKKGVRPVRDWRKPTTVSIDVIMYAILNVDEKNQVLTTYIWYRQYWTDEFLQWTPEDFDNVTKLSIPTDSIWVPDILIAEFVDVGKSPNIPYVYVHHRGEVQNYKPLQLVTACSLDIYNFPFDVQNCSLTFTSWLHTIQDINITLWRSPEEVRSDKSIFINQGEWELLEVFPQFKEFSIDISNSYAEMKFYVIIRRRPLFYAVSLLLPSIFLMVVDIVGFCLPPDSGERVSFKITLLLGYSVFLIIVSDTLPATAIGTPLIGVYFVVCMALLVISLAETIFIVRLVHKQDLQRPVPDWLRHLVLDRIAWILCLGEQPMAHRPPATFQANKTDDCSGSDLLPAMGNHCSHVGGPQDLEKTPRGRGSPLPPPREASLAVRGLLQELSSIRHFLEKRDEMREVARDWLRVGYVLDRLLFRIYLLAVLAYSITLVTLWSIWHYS
Test: [3H]granisetron competition binding, N128A mutant 5-HT3A receptors
Value Kind: Ki (nM)
Just the number please, in nM, no unit attached.

-- ask Tell me Ki reported for NCCc1c[nH]c2ccc(F)cc12 [5-FT, 5-fluorotryptamine]
-- reply 2430

###

Entries annotated with measured pKi
target: 5-HT3AB receptors (Mus musculus, UniProt P23979+Q9JHJ5); construct: expressed in transfected cells; host or cells: Xenopus laevis oocytes injected with cRNA (pGEMHE); test: [3H]granisetron binding to membranes of transfected HEK 293 cells, 5-HT3AB receptors; settings: 5-HT3AB receptors, HEK 293 membranes; 0.5 nM [3H]granisetron; 4 °C; read-out: Ki, displacement of [3H]granisetron binding
Conceptually, pKi converts a concentration in mol/L into minus its log10.

# Compound, Quantitative Result
records = [
    ("NCCc1c[nH]c2ccccc12 [tryptamine]", 4.81),
]

-- ask Name the recorded pKi of the item N=C(N)NC(=N)Nc1cccc(Cl)c1 [mCPBG, m-chlorophenylbiguanide] in your answer.
-- reply 7.92

###

target: 5-HT3A receptors (Mus musculus, UniProt P23979); construct: expressed in transfected cells; host or cells: Xenopus laevis oocytes injected with cRNA (pGEMHE); experiment: Agonist-induced currents in Xenopus oocytes expressing 5-HT3A receptors (OpusXpress electrophysiology); assay type: cell-based; conditions: 5-HT3A receptors in Xenopus oocytes; holding potential -60 mV; read-out: EC50
Value Kind: EC50 (nM)
Respond numerically; units are nM and should not be typed.

-- ask For the compound N=C(N)NC(=N)Nc1cccc(Cl)c1 [mCPBG, m-chlorophenylbiguanide] , give its reported EC50.
-- reply 500

###

Target: 5-HT3A receptors (Mus musculus)
Construct: expressed in transfected cells; host or cells: Xenopus laevis oocytes injected with cRNA (pGEMHE)
Sequence (P23979 24-489): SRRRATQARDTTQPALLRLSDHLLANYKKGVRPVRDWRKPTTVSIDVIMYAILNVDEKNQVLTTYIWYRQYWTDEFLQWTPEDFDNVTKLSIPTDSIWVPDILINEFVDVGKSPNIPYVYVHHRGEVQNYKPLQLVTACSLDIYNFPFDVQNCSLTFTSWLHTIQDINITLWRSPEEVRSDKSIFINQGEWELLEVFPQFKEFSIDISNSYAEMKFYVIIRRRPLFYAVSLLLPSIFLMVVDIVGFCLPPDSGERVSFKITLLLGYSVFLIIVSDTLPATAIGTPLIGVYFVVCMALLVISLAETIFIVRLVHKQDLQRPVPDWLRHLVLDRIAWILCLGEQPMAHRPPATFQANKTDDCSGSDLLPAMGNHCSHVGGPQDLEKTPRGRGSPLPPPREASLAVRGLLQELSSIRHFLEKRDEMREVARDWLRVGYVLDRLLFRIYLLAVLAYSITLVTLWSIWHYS
Experiment: [3H]granisetron binding to membranes of transfected HEK 293 cells, 5-HT3A receptors
Conditions: WT 5-HT3A receptors, HEK 293 membranes; 0.5 nM [3H]granisetron; 4 °C; read-out: Ki, displacement of [3H]granisetron binding
Value Kind: pKi
# pKi is unitless: minus log10 of the molar concentration; print number only

# Compound, pKi
data = [
    ("N=C(N)NC(=N)Nc1cccc(Cl)c1 [mCPBG, m-chlorophenylbiguanide]", 8.00),
]

The record that follows has no pKi shown yet.
-- ask Please give measured pKi of the following entry: NCCc1c[nH]c2ccccc12
-- reply 5.32
